# tested-system: T1, HLA-DR DRB1*1101 (human)
# T1 chain 1: not shown
# T1 chain 2: not shown
# assay: radioligand competition, purified HLA-DR
# settings: remark: other sources report otherwise
experimental-endpoint: pIC50
Just the number, please; pIC50 means minus log10 of the concentration in mol/L.

LLTFWNPPTTAKLTI [CEA.24 (peptide 9019.0105)] = 7.28

What does the record list as pIC50 for TAKLTIESTPFNVAE [CEA.33 (peptide 9019.0106)] ?
5.22
